substrate: OC[C@@H](O)[C@H](O)[C@@H](O)CO; assay: purified protein; settings: 1-10 mM xylitol, 1.5 mM NAD+, 50 mM Tris-HCl pH 8.0, 30 °C
recordedEndpoint: kcat (s⁻¹)
Give bare numbers, in s⁻¹.

{"columns": ["protein", "kcat, s⁻¹"],
 "data": [
  ["SpXDH C97S mutant (enzyme, Schizosaccharomyces pombe, UniProt P36624 1-360, looked up, SPBC1773.05c protein of S. pombe (SpXDH), cloned into pQE-81L; source: E. coli DH5α, purified (Ni-NTA)) MAPAEKAFVLRKKMDTAIEDRPGQTLTDDHQVKVAIKATGICGSDVHYWKEGGIGDFILKKPMILGHESAGVVVEVGKGVSSLKPGDPVAVEPGCVSRLCDYCRSGRYNLCPHMEFAATPPYDGTLRTYYITTEDFCTKLPKQISVEEGALFEPMSVAVHAMTRGNLKCGSRVLVMGCGTVGLLMMAVAKAYGAIDIVAVDASPSRVEFAQKYVGAKPFTPIAAKENESLPDYAQRYKQAIIEKYGEFDFAVDATGVGICIHTAVLALKRGGTFVQAGNGKPVIDFPINHIINYEINVLGSFRYAHGCYKQSLFLVSNGLVDVKPLITHRFAFKDALKAYETVASGEEGVLKVIIGGPDA", 6.03],
  ["SpXDH (Schizosaccharomyces pombe 972h-; C100D) (protein) MAPAEKAFVLRKKMDTAIEDRPGQTLTDDHQVKVAIKATGICGSDVHYWKEGGIGDFILKKPMILGHESAGVVVEVGKGVSSLKPGDPVAVEPGCVCRLDDYCRSGRYNLCPHMEFAATPPYDGTLRTYYITTEDFCTKLPKQISVEEGALFEPMSVAVHAMTRGNLKCGSRVLVMGCGTVGLLMMAVAKAYGAIDIVAVDASPSRVEFAQKYVGAKPFTPIAAKENESLPDYAQRYKQAIIEKYGEFDFAVDATGVGICIHTAVLALKRGGTFVQAGNGKPVIDFPINHIINYEINVLGSFRYAHGCYKQSLFLVSNGLVDVKPLITHRFAFKDALKAYETVASGEEGVLKVIIGGPDA", 2.17],
  ["SpXDH C103D mutant (enzyme, Schizosaccharomyces pombe, UniProt P36624 1-360, looked up, SPBC1773.05c protein of S. pombe (SpXDH), cloned into pQE-81L; source: E. coli DH5α, purified (Ni-NTA)) MAPAEKAFVLRKKMDTAIEDRPGQTLTDDHQVKVAIKATGICGSDVHYWKEGGIGDFILKKPMILGHESAGVVVEVGKGVSSLKPGDPVAVEPGCVCRLCDYDRSGRYNLCPHMEFAATPPYDGTLRTYYITTEDFCTKLPKQISVEEGALFEPMSVAVHAMTRGNLKCGSRVLVMGCGTVGLLMMAVAKAYGAIDIVAVDASPSRVEFAQKYVGAKPFTPIAAKENESLPDYAQRYKQAIIEKYGEFDFAVDATGVGICIHTAVLALKRGGTFVQAGNGKPVIDFPINHIINYEINVLGSFRYAHGCYKQSLFLVSNGLVDVKPLITHRFAFKDALKAYETVASGEEGVLKVIIGGPDA", 7.82]
]}

Here is another protein to look at.
Please report the recorded kcat for SpXDH C100S mutant (enzyme, Schizosaccharomyces pombe, UniProt P36624 1-360, looked up, SPBC1773.05c protein of S. pombe (SpXDH), cloned into pQE-81L; source: E. coli DH5α, purified (Ni-NTA)) MAPAEKAFVLRKKMDTAIEDRPGQTLTDDHQVKVAIKATGICGSDVHYWKEGGIGDFILKKPMILGHESAGVVVEVGKGVSSLKPGDPVAVEPGCVCRLSDYCRSGRYNLCPHMEFAATPPYDGTLRTYYITTEDFCTKLPKQISVEEGALFEPMSVAVHAMTRGNLKCGSRVLVMGCGTVGLLMMAVAKAYGAIDIVAVDASPSRVEFAQKYVGAKPFTPIAAKENESLPDYAQRYKQAIIEKYGEFDFAVDATGVGICIHTAVLALKRGGTFVQAGNGKPVIDFPINHIINYEINVLGSFRYAHGCYKQSLFLVSNGLVDVKPLITHRFAFKDALKAYETVASGEEGVLKVIIGGPDA .
0.202

meta.source: paper PMC9895041
